Just for reference, PubChem BioAssay (NCATS) is where these values come from.

Experiment: Cell Viability - LYMP1-003 - Assay at 40 hr (AID 964); also: nearly all actives have a fitted effect of over 60% in size
Conditions: LYMP1-003 lymphoblastoid viability; series mostly up to 92.2 µM
Inconclusive results are not listed. Active and inactive are the calls of the source. Calls follow the shape of the dose curve; as a rule, active = well fitted cell-killing curve with a large enough effect; inconclusive = small, poorly fitted or top-dose-only effect; inactive = flat fitted curve, though single readings scatter.
Outcome codes: yes (active), no (inactive)

MOLECULE	DISCRETE_LABEL
O=CC=O	no
CC(C)CCON=O	no
Clc1ccccc1Cl	no
[Cl-].[Cl-].[Hg+2]	yes
CC(C)(C)c1cc(O)ccc1O	no
O=Cc1ccco1	no
O=[N+]([O-])c1ccc(F)c([N+](=O)[O-])c1	no
O=C(O)C(Cl)(Cl)Cl	no
O=C/C=C/c1ccccc1	no
S=C=S	no
C=CCN=C=S	no
O=C1C=CC(=O)C=C1	no
Oc1cc(Cl)c(Cl)cc1Cl	no
CCCCCl	no
COc1ccc2c(c1OC)C(=O)OC2C1c2cc3c(cc2CCN1C)OCO3 (centres undefined)	no
CC(C)Nc1ccc(Nc2ccccc2)cc1	yes
O=[N+]([O-])c1ccccc1	no
C[C@H]1CC[C@@H]2[C@@H](C)[C@H]3[C@H](C[C@H]4[C@@H]5CC=C6CC(O[C@@H]7O[C@H](CO)[C@H](O)[C@H](O[C@@H]8O[C@H](CO)[C@@H](O)[C@H](O)[C@H]8O)[C@H]7O[C@H]7O[C@@H](C)[C@H](O)[C@@H](O)[C@H]7O)CC[C@]6(C)[C@H]5CC[C@]34C)N2C1 (some centres undefined)	yes
[O]=[Cd]	no

###

Test system: CP238
Experiment: qHTS profiling for inhibitors of Plasmodium falciparum proliferation (AID 504749); also: nearly all actives have a fitted effect of over 60% in size; also: potency is read from the fitted curve at half-maximal effect
Settings: P. falciparum in erythrocytes, SYBR Green DNA, 72 h; series mostly up to 28.7 µM
Results filed as inconclusive are left out. Calls of active or inactive are those of the source. Calls come from the whole dose curve; as a rule, active = well fitted inhibition curve with a large enough effect; inconclusive = small, poorly fitted or top-dose-only effect; inactive = flat fitted curve, though single readings scatter.
QUANTITY_MEASURED: Potency

COMPOUND	EXPERIMENTAL_RESULT
COc1ccc2c3c1O[C@H]1C(=O)CC[C@H]4[C@@H](C2)N(C)CC[C@]314	inactive
N#CC1(N2CCCCC2)CCCCC1	inactive
CN1c2ccccc2C(NCCCCCCC(=O)O)c2ccc(Cl)cc2S1(=O)=O (configuration not stated)	inactive
Cn1sc(Cl)cc1=O	inactive
O=CC=O	inactive
O=[N+]([O-])C(Br)(CO)CO	inactive
CC(C)(O)C1C2OC(=O)C1C1(O)CC3OC34C(=O)OC2C14C (configuration not stated)	inactive
CNC(=O)Oc1ccccc1C(=O)Nc1ccccc1	inactive
[Cl-].[Cl-].[Hg+2]	10 µM (active)
O=C/C=C/c1ccccc1	inactive
CCC1(CC)C(=O)NC(=O)N(C)C1=O	inactive
C=CCN1CCC23c4c5ccc(O)c4O[C@H]2C(=O)CC[C@@]3(O)C1C5 (some centres not stated)	inactive
CCC(C)(S(=O)(=O)CC)S(=O)(=O)CC	inactive
O=C(NC(=O)c1c(F)cccc1F)Nc1ccc(Cl)c(Oc2ncc(C(F)(F)F)cc2Cl)c1	inactive
CCC1(c2ccccc2)C(=O)NC(=O)NC1=O	inactive
C=CCN(C1=NCCN1)c1c(Cl)cccc1Cl	inactive
CC(=O)O[C@H]1CC[C@H]2[C@@H]3CCC4=CC(=O)CCC4=C3C=C[C@]12C	inactive
CCCC(C)(COC(N)=O)COC(=O)NC1CC1 (configuration not stated)	inactive
N#CN	inactive
C[C@]12CCC(=O)C[C@@H]1CC[C@@H]1[C@@H]2CC[C@]2(C)[C@@H](O)CC[C@@H]12	inactive
[O]=[Cr](=[O])([OH])[O][Cr](=[O])(=[O])[OH]	inactive
CNC(=O)OCC[N+](C)(C)C	inactive
O=[N+]([O-])c1cc(I)c(O)c(I)c1	inactive
O=C1CCO1	inactive
CC(=O)OO	inactive
CCOc1ccc2c3c1O[C@H]1[C@@H](O)C=C[C@H]4[C@@H](C2)N(C)CC[C@@]341	inactive
CN1C2CCC1CC(OC(c1ccccc1)c1ccc(Cl)cc1)C2 (configuration not stated)	10 µM (active)
CCCCCCCCOC(=O)c1ccccc1C(=O)OCCCCCCCC	inactive
O=Cc1ccco1	inactive
CCOC(=O)c1ccccc1C(=O)OCC	inactive
COCC(C)N(C(=O)CCl)c1c(C)csc1C (configuration not stated)	inactive
CCC1(c2ccccc2)C(=O)NC(=O)N(C)C1=O (configuration not stated)	inactive
O=c1[nH]c(=O)n(Cl)c(=O)n1Cl	inactive
O=C(NCNC(=O)NC1C(=O)NC(=O)N1CO)NC1C(=O)NC(=O)N1CO (configuration not stated)	inactive
ClC=C(Cl)Cl	inactive
CNC(C)C(O)c1ccc(O)cc1 (configuration not stated)	inactive
C[C@H]1CC[C@@H]2[C@@H](C)[C@H]3[C@H](C[C@H]4[C@@H]5CC=C6CC(O[C@@H]7O[C@H](CO)[C@H](O)[C@H](O[C@@H]8O[C@H](CO)[C@@H](O)[C@H](O)[C@H]8O)[C@H]7O[C@H]7O[C@@H](C)[C@H](O)[C@@H](O)[C@H]7O)CC[C@]6(C)[C@H]5CC[C@]34C)N2C1 (some centres not stated)	inactive
COC1=CC=C2[C@H]3Cc4ccc(OC)c5c4[C@@]2(CCN3C)[C@H]1O5	inactive
CC[N+](C)(CC)CCOC(=O)C(O)(c1ccccc1)c1ccccc1	inactive
CC(N)Cc1ccc(O)cc1 (configuration not stated)	inactive
CCOP(=O)(OCC)O/C(=C/Cl)c1ccc(Cl)cc1Cl	inactive
CCC1C(C)=NN=C(c2ccc(OC)c(OC)c2)c2cc(OC)c(OC)cc21 (configuration not stated)	inactive
O=C(OCCN1CCCCC1)C(O)(c1ccccc1)c1ccccc1	inactive
S=C(S)N1CCNCC1	inactive
C=CCC1(C(C)CCC)C(=O)N=C(S)NC1=O (configuration not stated)	inactive
S=C=S	inactive
O=C(O)C(Cl)(Cl)Cl	inactive

###

Target: Rap guanine nucleotide exchange factor 3 (Homo sapiens)
Test: Confirmatory qHTS for antagonist of cAMP-regulated guanine nucleotide exchange factor 3 (EPAC1) (AID 1645880);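 also: plate controls were DMSO only for no effect and full effect of the ATA control for full effect; nearly all actives have a fitted effect of over 55% in size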
Details: EPAC1 Rap1B-BODIPY-GDP exchange, fluorescence; series mostly up to 115 µM
Results filed as inconclusive are left out. Activity calls are given as the source filed them. Calls follow the shape of the dose curve; as a rule, active = well fitted inhibition curve with a large enough effect; inconclusive = small, poorly fitted or top-dose-only effect; inactive = no such curve, though single readings can be large or run the other way.

MOLECULE	activity, negative = inhibition
O=C1CN=C(c2ccccc2)c2cc(Cl)ccc2N1CC1CC1	inactive
O=c1[nH]cc(N(CCCl)CCCl)c(=O)[nH]1	inactive
CCCn1c(C)c(C(=O)c2ccc3ccccc3c2)c2ccccc21	inactive
O=C1OC2(c3cc(Br)c(O)cc3Oc3c2cc(Br)c(O)[c]3[Hg])c2ccccc21 (centres undefined)	245% [at 22 µM] (inactive)

###

Test system: CP266
Assay: qHTS profiling for inhibitors of Plasmodium falciparum proliferation (AID 504749); also: nearly all actives have a fitted effect of over 60% in size
Conditions: P. falciparum in erythrocytes, SYBR Green DNA, 72 h; series mostly up to 28.7 µM
Results filed as inconclusive are left out. Calls of active or inactive are those of the source. Calls come from the whole dose curve; as a rule, active = well fitted inhibition curve with a large enough effect; inconclusive = small, poorly fitted or top-dose-only effect; inactive = flat fitted curve, though single readings scatter.
Classes used: YES for active, NO for inactive

MOLECULE	DISCRETE_LABEL
Clc1ccccc1Cl	NO
CC(C)Nc1ccc(Nc2ccccc2)cc1	YES
O=C1CCCCC1CN1CCCCC1 (centres undefined)	NO
O=CC=O	NO
O=C1CN(O)C(c2ccccc2)=c2cc(Cl)ccc2=N1	NO
COCC(C)N(C(=O)CCl)c1c(C)csc1C (centres undefined)	NO
[Cl-].[Cl-].[Hg+2]	NO
c1ccc(C2(N3CCCC3)CCCCC2)cc1	NO
O=c1[nH]cc(N(CCCl)CCCl)c(=O)[nH]1	NO
S=C(S)N1CCNCC1	NO
CC[N+](C)(CC)CCOC(=O)C(O)(c1ccccc1)c1ccccc1	NO
c1csc(C2(N3CCCCC3)CCCCC2)c1	NO
CCC(N)Cc1c[nH]c2ccccc12 (centres undefined)	NO
O=C(NCNC(=O)NC1C(=O)NC(=O)N1CO)NC1C(=O)NC(=O)N1CO (centres undefined)	NO

###

Assay: Primary fluorescence-based thiol-reactive (MSTI) qHTS assay for identification of artifact compounds. (AID 1845221);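 also: thiol-reactive compounds lower the probe fluorescence signal; nearly all actives have a fitted effect of over 65% in size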
Conditions: MSTI thiol-reactivity probe, 1 h; series mostly up to 53.8 µM
Records with an inconclusive call do not appear. The source made the active and inactive calls. Calls follow the shape of the dose curve; as a rule, active = well fitted inhibition curve with a large enough effect; inconclusive = small, poorly fitted or top-dose-only effect; inactive = no such curve, though single readings can be large or run the other way.
QUANTITY_MEASURED: activity change, negative = thiol reactive

MOLECULE	EXPERIMENTAL_RESULT
COc1cc2c(cc1OC)[C@@]13CCN4CC5=CCO[C@H]6CC(=O)N2[C@H]1[C@H]6[C@H]5C[C@H]43	inactive
C/C=C(\C)C(=O)OC1CC2C(CC=C3CC(OC4CC(OC)C(OC5CC(OC)C(OC6OC(C)C(OC7OC(CO)C(O)C(O)C7O)C(OC)C6O)C(C)O5)C(C)O4)CCC32C)C2(O)CCC(C(C)=O)C12C (centres undefined)	19.1% [at 11.5 µM] (inactive)
COC1=CC(=O)O[C@@H](CCc2ccccc2)C1	inactive
Cc1cn(C[C@H](N)C(=O)O)c(=O)n(Cc2cc(-c3ccccc3)sc2C(=O)O)c1=O	inactive
